System: HS 578T breast
Assay: NCI-60 one-dose screen, 48 h
Details: 10 µM unless noted
The panel holds about 83,000 compounds, 20% with a hit somewhere; the sample as a whole holds those more often. Activity calls are given as the source filed them. How the source made its calls: active means growth percent below 10; inactive means the rest.
Log the outcome using a class from active, inactive

Use these answered entries as a reference point.
- COC(=O)c1ccc(CSc2nnc(-c3ccncc3)o2)cc1: inactive
- Oc1[nH]c2ccccc2c1/C=c1/cc2c(c(-c3ccc(F)cc3)n1)=Nc1ccccc1-2: active
- CCN(CC)CCCNC(=O)c1ccc(N)cc1O: inactive
- N#Cc1c(-c2ccc(C(F)(F)F)cc2)cc(N2CC(O)C2)n2c1nc1ccccc12: inactive

How was OC(c1cccc(OCc2ccccc2)c1)c1nnc(-c2ccccc2)o1 (stereo unspecified) classified in this test?
inactive

Entry to check: `CCOc1cccnc1/C=N/NC(N)=S`
inactive

Param item: `CCN(CC)CC(=O)Nc1cccc(C(=O)OC(C)C)c1`
inactive

What about `N=C(N)c1ccc(-c2ccc(-c3ccc(Cl)cn3)s2)cc1` ?
inactive

Same question, `COc1ccc(Cn2cnc3cc(C(=O)Nc4cccc5ccccc45)ccc32)c(OC)c1` this time
inactive

What would you report for C=C(C)C1CCC(=C)C2CCC3(C)OC12/C=C(/COC(C)=O)CCC3O (stereo unspecified) ?
inactive

Query `Nc1c(C(=O)c2ccc(Cl)s2)sc2nc3c(cc12)CCCC3` next
inactive
